tested on: Sigma intracellular receptor 2 (Homo sapiens)
Sequence (Q5BJF2 whole entry): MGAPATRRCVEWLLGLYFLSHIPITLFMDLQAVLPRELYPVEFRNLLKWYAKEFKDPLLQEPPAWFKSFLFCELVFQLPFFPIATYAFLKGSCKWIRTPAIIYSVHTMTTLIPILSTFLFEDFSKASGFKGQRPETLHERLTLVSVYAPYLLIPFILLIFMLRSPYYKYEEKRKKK
protocol notes: GPCRScan assay: inhibition of Sigma 2
Set-up: radioligand conc. used [nm] 5.0, parental cells HEKT
applied conditions: read-out: Ki
In this section, each of the compounds is paired with its reported Ki.
measured attribute: Ki (nM)

| compound | tested on | measured attribute | unit tag | observed value |
| --- | --- | --- | --- | --- |
| Cn1c(-c2csc(C3CCN(CC4=NC5N=CC=CC5N4)CC3)n2)nc2ccccc21 (configuration not stated) [BAY-070] | Sigma intracellular receptor 2 (Homo sapiens) | Ki | nM | 152 |
| c1ccc2oc(-c3csc(C4CCN(Cc5nc6ncccc6[nH]5)CC4)n3)cc2c1 | Sigma intracellular receptor 2 (Homo sapiens) | Ki | nM | 1120 |
